Sourced from patent US10597388B2

Plant response rating, Oilseed Rape for assorted molecules
# System: oilseed rape (Brassica napus)
# Experimental Details: Test C greenhouse herbicide test, pre- and postemergence
# Assay type: in vivo
# Particulars: Postemergence, 250 g ai/ha; scale 0 to 100, 0 no effect, 100 complete control; 13 to 15 d

| Mol | Plant response rating, Oilseed Rape |
| --- | --- |
| Cc1nn(C)c(=O)c(-c2cccc3ccccc23)c1O | 0 |
| Cc1ccc2sc(C)c(-c3c(OC(=O)OC(C)C)c(C)nn(C)c3=O)c2c1 | 0 |
| Cc1nn(C)c(=O)c(-c2ccc(Br)c3ccccc23)c1O | 80 |
| Cc1cc(C)c2ccccc2c1-c1c(O)c(C)nn(C)c1=O | 100 |
| Cc1ccc2ccccc2c1-c1c(OC(=O)OC(C)C)c(C)nn(C)c1=O | 85 |
| CCCC(=O)Oc1c(C)nn(C)c(=O)c1-c1c(C)sc2ccc(C)cc12 | 75 |
| Cc1nn(C)c(=O)c(-c2cccc3ccc(Br)cc23)c1O | 85 |
| Cc1nn(C)c(=O)c(-c2c(C)sc3ccc(Br)cc23)c1O | 75 |
| CCC(=O)Oc1c(C)nn(C)c(=O)c1-c1ccc(Br)c2ccccc12 | 100 |
| CCc1oc2ccc(C)cc2c1-c1c(O)c(C)nn(C)c1=O | 0 |
| COC(=O)Oc1cnn(C)c(=O)c1-c1c(C)sc2ccccc12 | 35 |
